Cited source: patent US20240279226A1

# tested_target: 5-HT2C receptor (Homo sapiens (Human), UniProt P28335)
# Sequence (P28335 33-458 limits assumed): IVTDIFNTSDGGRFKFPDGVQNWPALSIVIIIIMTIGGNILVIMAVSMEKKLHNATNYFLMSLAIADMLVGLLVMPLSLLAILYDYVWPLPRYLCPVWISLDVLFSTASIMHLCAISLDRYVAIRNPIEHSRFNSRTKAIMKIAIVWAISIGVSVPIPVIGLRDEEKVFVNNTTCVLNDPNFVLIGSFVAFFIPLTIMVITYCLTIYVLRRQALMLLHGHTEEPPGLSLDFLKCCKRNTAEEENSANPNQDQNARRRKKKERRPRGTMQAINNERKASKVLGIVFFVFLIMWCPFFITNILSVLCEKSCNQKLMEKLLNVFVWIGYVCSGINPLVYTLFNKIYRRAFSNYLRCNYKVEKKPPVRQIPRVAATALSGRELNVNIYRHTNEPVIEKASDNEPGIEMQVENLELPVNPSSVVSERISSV
observation_type: pIC50
pIC50 here is simply -log10 of the concentration when that concentration is written in mol/L.

Determine from records and report pIC50 for [2H]C([2H])([2H])N1C[C@H](NC(=O)N(CC)OC)C=C2c3cccc4[nH]cc(c34)C[C@H]21
6.51

Determine from records and report pIC50 for [2H]C([2H])([2H])N1C[C@@H](NC(=O)N(CC)OC)C=C2c3cccc4[nH]cc(c34)C[C@H]21
7.02

---

This section lists pIC50 readings for 5-HT2A receptor (Homo sapiens (Human), UniProt P28223).
pIC50 here is simply -log10 of the concentration when that concentration is written in mol/L.

Determine from records and report pIC50 for [2H]C([2H])([2H])N1C[C@H](NC(=O)N(CC)OC)C=C2c3cccc4[nH]cc(c34)C[C@H]21
8.19

Determine from records and report pIC50 for [2H]C([2H])([2H])N1C[C@@H](NC(=O)N(CC)OC)C=C2c3cccc4[nH]cc(c34)C[C@H]21
8.59
